A collection of compounds and their measured IC50
test system: HCT-116; experiment: Cytotoxicity against human HCT-116 cells assessed as reduction in cell viability after 48 hrs by MTT assay; type: functional, cell-based; settings: HCT-116, 48 h
Residues, ends and D or L forms follow the SMILES beside them. *: point of attachment. X2 = CC(=O)O[C@@]12CO[C@@H]1C[C@H](O)[C@@]1(C)C(=O)[C@H](O)C3=C(C)[C@@H](OC(=O)[C@H](OC(=O)OCc4ccc(N*)cc4)[C@@H](NC(=O)OC(C)(C)C(F)(F)F)c4ccccc4)C[C@@](O)([C@@H](OC(=O)c4cccc(F)c4)[C@H]21)C3(C)C; X1 = CC(=O)O[C@@]12CO[C@@H]1C[C@H](O)[C@@]1(C)C(=O)[C@H](O)C3=C(C)[C@@H](OC(=O)[C@H](OC(=O)OCc4ccc(N*)cc4)[C@@H](NC(=O)OC(C)(C)C)c4ccccc4)C[C@@](O)([C@@H](OC(=O)c4ccccc4)[C@H]21)C3(C)C; Fmoc = O=C(OCC1c2ccccc2-c2ccccc21)*
Please give a number only; it is taken to be in nM.

CC[C@H](C)[C@H](NC(=O)[C@H](C)NC(=O)[C@H](CCC(N)=O)NC(=O)[C@@H]1CCCN1C(=O)CNC(C)=O)C(=O)N[C@@H](C)C(=O)NCC(=O)N[C@@H](CCC(N)=O)C(=O)N[C@@H](CC(C)C)C(=O)Nc1ccc(COC(=O)O[C@@H](C(=O)O[C@H]2C[C@@]3(O)[C@@H](OC(=O)c4cccc(F)c4)[C@@H]4[C@]5(OC(C)=O)CO[C@@H]5C[C@H](O)[C@@]4(C)C(=O)[C@H](O)C(=C2C)C3(C)C)[C@@H](NC(=O)OC(C)(C)C(F)(F)F)c2ccccc2)cc1 (Ac-GPQAIAGQL-X2) : 5.4
CC[C@H](C)[C@H](NC(=O)CNC(=O)[C@H](CCC(N)=O)NC(=O)[C@@H]1CCCN1C(=O)CNC(C)=O)C(=O)N[C@@H](C)C(=O)N[C@@H](CCSC)C(=O)N[C@@H](CCC(N)=O)C(=O)N[C@@H](CC(C)C)C(=O)Nc1ccc(COC(=O)O[C@@H](C(=O)O[C@H]2C[C@@]3(O)[C@@H](OC(=O)c4cccc(F)c4)[C@@H]4[C@]5(OC(C)=O)CO[C@@H]5C[C@H](O)[C@@]4(C)C(=O)[C@H](O)C(=C2C)C3(C)C)[C@@H](NC(=O)OC(C)(C)C(F)(F)F)c2ccccc2)cc1 (Ac-GPQGIAMQL-X2) : 2.8

Problem: What does the record list as IC50 for CC(=O)NCC(=O)N1CCC[C@H]1C(=O)N[C@@H](CCC(N)=O)C(=O)NCC(=O)N[C@@H](CC(C)C)C(=O)N[C@@H](C)C(=O)NCC(=O)N[C@@H](CCC(N)=O)C(=O)N[C@@H](CC(C)C)C(=O)Nc1ccc(COC(=O)O[C@@H](C(=O)O[C@H]2C[C@@]3(O)[C@@H](OC(=O)c4ccccc4)[C@@H]4[C@]5(OC(C)=O)CO[C@@H]5C[C@H](O)[C@@]4(C)C(=O)[C@H](O)C(=C2C)C3(C)C)[C@@H](NC(=O)OC(C)(C)C)c2ccccc2)cc1 (Ac-GPQGLAGQL-X1) ?
Result: 5.2

Problem: What does the record list as IC50 for CC[C@H](C)[C@H](NC(=O)CNC(=O)[C@H](CC(C)C)NC(=O)[C@@H]1CCCN1C(=O)CNC(=O)OCC1c2ccccc2-c2ccccc21)C(=O)N[C@@H](C)C(=O)NCC(=O)N[C@@H](CCC(N)=O)C(=O)N[C@@H](CC(C)C)C(=O)Nc1ccc(COC(=O)O[C@@H](C(=O)O[C@H]2C[C@@]3(O)[C@@H](OC(=O)c4cccc(F)c4)[C@@H]4[C@]5(OC(C)=O)CO[C@@H]5C[C@H](O)[C@@]4(C)C(=O)[C@H](O)C(=C2C)C3(C)C)[C@@H](NC(=O)OC(C)(C)C(F)(F)F)c2ccccc2)cc1 (Fmoc-GPLGIAGQL-X2) ?
Result: 439
